systemTested: 3-oxoacyl-[acyl-carrier-protein] synthase 2 (Staphylococcus aureus, UniProt Q5TKS0)
Sequence (Q5TKS0 whole entry): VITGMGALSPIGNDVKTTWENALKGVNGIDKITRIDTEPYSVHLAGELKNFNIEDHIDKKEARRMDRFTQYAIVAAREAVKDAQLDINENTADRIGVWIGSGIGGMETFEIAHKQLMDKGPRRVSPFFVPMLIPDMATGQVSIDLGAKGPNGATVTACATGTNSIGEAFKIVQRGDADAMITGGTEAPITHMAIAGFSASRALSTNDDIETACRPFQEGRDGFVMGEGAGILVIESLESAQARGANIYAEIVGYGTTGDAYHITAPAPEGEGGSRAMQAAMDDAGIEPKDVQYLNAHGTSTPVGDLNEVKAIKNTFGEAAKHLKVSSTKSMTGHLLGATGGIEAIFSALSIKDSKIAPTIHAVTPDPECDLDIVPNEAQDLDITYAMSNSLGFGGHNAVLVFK
experimentDescription: Inhibition of FabF-mediated type 2 fatty acid synthesis in Staphylococcus aureus by cell free assay
pIC50: −log10 of the molar value.
readoutLabel: pIC50

The following compounds have reported results that may help.
Give the measured pIC50 of CC12C[C@@]34C=CC(=O)[C@@](C)(CCC(=O)Nc5c(O)ccc(C(=O)O)c5O)C3[C@H](CC1C4)O2 (some centres not stated) .
5.95

Give the measured pIC50 of CC12CC34CC1CC(O2)C3[C@](C)(CCC(=O)Nc1c(O)ccc(C(=O)O)c1O)C(=O)[C@@H]1C[C@@H]14 (some centres not stated) .
4.68

Give the measured pIC50 of CC1CC(=O)[C@@](C)(CCC(=O)Nc2c(O)ccc(C(=O)O)c2O)C2C3CC4CC12CC4(C)O3 (some centres not stated) .
4.55

P: CC12CC34Cc5cnoc5[C@@](C)(CCC(=O)Nc5c(O)ccc(C(=O)O)c5O)C3C(CC1C4)O2 (some centres not stated)
Q: CC12CC34COC(=O)[C@@](C)(CCC(=O)Nc5c(O)ccc(C(=O)O)c5O)C3C(CC1C4)O2 (some centres not stated)
For the pair P and Q , which entry has the numerically smaller recorded pIC50? State your choice using its label.
Q

---

Each entry below carries its recorded Activity.
Test system: Staphylococcus aureus
experimentDescription: Antibacterial activity against antisense fabH/fabF sensitized Staphylococcus aureus assessed as minimum concentration required to show differential zone of fabF antisense strain clearance by two plate differential sensitivity assay
Assay type: functional

The following molecules have reported results that may help.
Give the measured Activity of CC1CC(=O)[C@@](C)(CCC(=O)Nc2c(O)ccc(C(=O)O)c2O)C2C3CC4CC12CC4(C)O3 (stereo partly drawn) .
<20 µg/mL

Give the measured Activity of CC12CC34CC1CC(O2)C3[C@](C)(CCC(=O)Nc1c(O)ccc(C(=O)O)c1O)C(=O)[C@@H]1C[C@@H]14 (stereo partly drawn) .
0.1 µg/mL

Now for the molecule whose Activity we want.
Give the measured Activity of CC12CC34CC1CC(O2)C3[C@](C)(CCC(=O)Nc1c(O)ccc(C(=O)O)c1O)C(=O)CC4c1ccccc1 (stereo partly drawn) [PHENYL DIHYDROPLATENSIMYCIN] .
<20 µg/mL

---

Test system: Staphylococcus aureus
experimentDescription: Antimicrobial activity against wild type Staphylococcus aureus
Type: functional
readoutLabel: MIC (µg/mL)

Give the measured MIC of CC12CC34CCC(=O)[C@@](C)(CCC(=O)Nc5c(O)ccc(C(=O)O)c5O)C3C(CC1C4)O2 (stereo partly specified) [DIHYDROPLATENSIMYCIN] .
2

P: CC12CC34Cc5cnoc5[C@@](C)(CCC(=O)Nc5c(O)ccc(C(=O)O)c5O)C3C(CC1C4)O2 (stereo partly specified)
Q: CC12CC34CC1CC(O2)C3[C@](C)(CCC(=O)Nc1c(O)ccc(C(=O)O)c1O)C(=O)[C@@H]1C[C@@H]14 (stereo partly specified)
R: CC12CC34CC1CC(O2)C3[C@](C)(CCC(=O)Nc1c(O)ccc(C(=O)O)c1O)C(=O)CC4c1ccccc1 (stereo partly specified) [PHENYL DIHYDROPLATENSIMYCIN]
Order the entries by their reported MIC, beginning at the minimum. A ranking is expressed here by listing the labels in the requested order.
Q, R, P
(Q: 1 µg/mL, R: 4 µg/mL, P: 16 µg/mL)
